biological target: recombinant purified human IL-12 p70 (human) (UniProt P29459); test: SPR (BIAcore) per Example 1.1.B; antigen not restated, taken as human IL-12 p70
Sequence (chain, as listed by the source, form in doubt, chain 1 of 2): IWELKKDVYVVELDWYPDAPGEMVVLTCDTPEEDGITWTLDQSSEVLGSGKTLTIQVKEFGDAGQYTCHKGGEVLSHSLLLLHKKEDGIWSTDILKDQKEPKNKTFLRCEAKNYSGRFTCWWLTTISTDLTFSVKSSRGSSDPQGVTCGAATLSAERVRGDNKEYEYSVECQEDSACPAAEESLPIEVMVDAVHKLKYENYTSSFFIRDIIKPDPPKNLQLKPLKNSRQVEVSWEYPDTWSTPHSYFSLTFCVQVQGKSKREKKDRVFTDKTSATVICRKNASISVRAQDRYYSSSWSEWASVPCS
Sequence (P29459 23-219, form in doubt, chain 2 of 2): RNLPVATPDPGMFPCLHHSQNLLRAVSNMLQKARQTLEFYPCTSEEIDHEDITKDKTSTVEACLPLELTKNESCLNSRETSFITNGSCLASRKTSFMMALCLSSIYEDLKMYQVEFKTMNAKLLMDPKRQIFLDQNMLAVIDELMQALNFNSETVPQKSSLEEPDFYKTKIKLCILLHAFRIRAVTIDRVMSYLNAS
endpoint.name: koff
Your answer should be a number followed by the unit of measure.

In: # query: koff of entry 1A6.3 (antibody, human IgG1, V domains shown) VH: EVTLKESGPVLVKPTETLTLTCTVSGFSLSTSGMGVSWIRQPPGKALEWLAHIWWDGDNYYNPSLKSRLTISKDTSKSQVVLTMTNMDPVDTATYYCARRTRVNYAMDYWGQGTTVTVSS VL: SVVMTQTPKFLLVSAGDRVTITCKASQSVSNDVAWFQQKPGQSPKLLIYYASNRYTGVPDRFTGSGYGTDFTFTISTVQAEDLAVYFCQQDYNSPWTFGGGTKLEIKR
Out: 2.6e-05 s⁻¹
